# GI50 per entry
System: SNB-19 CNS
Assay: NCI tumour cell line growth inhibition, 48 h

> print(dat)
                                   compound  target.of.assay    result
1  COc1cccc(C(=O)NC(c2ccc(C)cc2)c2cc(Cl)c3cccnc3c2O)c1 (centres undefined)       SNB-19 CNS  0.371 µM

Task: // fetch GI50 given entry CCCCCCCCCCn1cc[n+](C)c1
Result: 3.96 µM

Task: Given the compound Nc1n[nH]c2cc(F)c([C@@H]3Nc4ccc5[nH]ncc5c4[C@H]4C5CCC(C5)[C@@H]34)cc12 (some centres undefined) , write its reported GI50.
Result: 1.03 µM

Task: Item N#CC(C#N)=C/C=C(\Sc1nc2ccccc2s1)c1ccc(Cl)cc1 : provide GI50
Result: 8.12 µM
